Data origin: patent US20250161299A1

# Assay Text: Phase I trial of oral PCLX-001: plasma pharmacokinetics, noncompartmental analysis (Phoenix WinNonlin 8.3)
# Format: in vivo, human
# Conditions Used: human, plasma, oral, 70 mg, Table 4; not on Pantoprazole; 70 mg; N 1; Day 15; read-out: Tmax
Measured Quantity: Tmax (h)
# number only, unit h dropped from output

## Input Give Tmax for Cc1c(NS(=O)(=O)c2c(Cl)cc(-c3ccnc(N4CCNCC4)c3)cc2Cl)c(CC(C)C)nn1C
## Output 4

###

# Assay Text: Phase I trial of oral PCLX-001: plasma pharmacokinetics, noncompartmental analysis (Phoenix WinNonlin 8.3)
# Format: in vivo, human
# Conditions Used: human, plasma, po, 20 mg, Table 6; Patient 115-002-001; Day 15; 20 mg QD oral; Pantoprazole No
Measured Quantity: Cmax (ng/mL)
# number only, unit ng/mL dropped from output

## Input Give Cmax for Cc1c(NS(=O)(=O)c2c(Cl)cc(-c3ccnc(N4CCNCC4)c3)cc2Cl)c(CC(C)C)nn1C [PCLX-001]
## Output 479

###

# Assay Text: Phase I trial of oral PCLX-001: plasma pharmacokinetics, noncompartmental analysis (Phoenix WinNonlin 8.3)
# Format: in vivo, human
# Conditions Used: human, plasma, po, 20 mg, Table 1A; Patient 115-002-002 (Patient 2); Day 1; 20 mg oral daily
Measured Quantity: Cmax (ng/mL)
# number only, unit ng/mL dropped from output

## Input Give Cmax for Cc1c(NS(=O)(=O)c2c(Cl)cc(-c3ccnc(N4CCNCC4)c3)cc2Cl)c(CC(C)C)nn1C
## Output 127

###

# Assay Text: Phase I trial of oral PCLX-001: plasma pharmacokinetics, noncompartmental analysis (Phoenix WinNonlin 8.3)
# Assay type: in vivo, human
# Conditions Used: human, plasma, po, 20 mg, Table 1A; Patient 115-002-004 (Patient 3); Day 1; 20 mg oral daily; read-out: AUClast or AUCtau
Measured Quantity: AUC(0-t) (ng·h/mL)
# number only, unit ng·h/mL dropped from output

## Input Give AUC(0-t) for Cc1c(NS(=O)(=O)c2c(Cl)cc(-c3ccnc(N4CCNCC4)c3)cc2Cl)c(CC(C)C)nn1C [PCLX-001]
## Output 1780

###

# Assay Text: Phase I trial of oral PCLX-001: plasma pharmacokinetics, noncompartmental analysis (Phoenix WinNonlin 8.3)
# Assay type: in vivo, human
# Conditions Used: human, plasma, oral, 100 mg, Table 4; not on Pantoprazole; 100 mg; N 2; Day 15; value from N = 1 patient
Measured Quantity: AUC(0-inf) (ng·h/mL)
# number only, unit ng·h/mL dropped from output

## Input Give AUC(0-inf) for Cc1c(NS(=O)(=O)c2c(Cl)cc(-c3ccnc(N4CCNCC4)c3)cc2Cl)c(CC(C)C)nn1C
## Output 19400

###

# Assay Text: Phase I trial of oral PCLX-001: plasma pharmacokinetics, noncompartmental analysis (Phoenix WinNonlin 8.3)
# Type: in vivo, human
# Conditions Used: human, plasma, po, 20 mg, Table 1A; Patient 115-002-001 (Patient 1); Day 15; 20 mg oral daily; read-out: AUClast or AUCtau
# From the text: The clinical trial is entitled “Phase I Trial of PCLX-001 in B-cell Non-Hodgkin Lymphoma and Advanced Solid Malignancies” and registered at clinicaltrials.gov as NCT04836195. It is a phase I dose-escalation study of oral PCLX-001, conducted in a multicenter, non-randomized, open-label, non-controlled design. The study is comprised of two parts: Part A (single-agent dose escalation) and Part B (single-agent expansion cohorts). […]
Measured Quantity: AUC(0-t) (ng·h/mL)
# number only, unit ng·h/mL dropped from output

## Input Give AUC(0-t) for Cc1c(NS(=O)(=O)c2c(Cl)cc(-c3ccnc(N4CCNCC4)c3)cc2Cl)c(CC(C)C)nn1C
## Output 2730
